test: qHTS assay to identify small molecule antagonists of the estrogen receptor alpha (ER-alpha) signaling pathway using the BG1 cell line in the presence of 0.1 nM 17-beta-estradiol - cell viability counter screen (AID 1259241); settings: VM7Luc4E2 (BG1) viability, CellTiter-Fluor protease, 22 h, 0.1 nM estradiol agonist added; series mostly up to 92.4 µM; also: nearly all actives have a fitted effect of over 40% in size
Results filed as inconclusive are left out. Active and inactive are the calls of the source. Calls follow the shape of the dose curve; as a rule, active = well fitted cell-killing curve with a large enough effect in the repeat runs; inconclusive = weak or mixed curves, or effect the other way; inactive = flat fitted curve, though single readings scatter.
Classes to choose from: t = active, f = inactive

CC(O)COc1ccccc1 (stereo not given): f

Task: Status in this test for `COc1cc2c(c(OC)c1OC)-c1ccc(OC)c(=O)cc1[C@@H](NC(C)=O)CC2` ?
Result: f

Task: Now the molecule `CCn1cc(C(=O)O)c(=O)c2ccc(C)nc21`
Result: f

Task: Now the molecule `CCCCOCCOCCOC(C)=O`
Result: f

Task: Now the molecule COCC(C)N (stereo not given)
Result: f

Task: Now the molecule `C=CCOC(=O)CC(C)C`
Result: f

Task: Now the molecule `O=[N+]([O-])c1ccc(O)cc1`
Result: t

Task: Now the molecule `CCCCOCCOCCSC#N`
Result: f

Task: Now the molecule `Cc1c(N(C)C)c(=O)n(-c2ccccc2)n1C`
Result: f

Task: Now the molecule `CCCCCCCCCCCCCC(=O)OC(C)C`
Result: f

Task: Now the molecule `C=C(C)C(N)=O`
Result: f

Task: Now the molecule `CN(C)C=O`
Result: f

Task: Now the molecule `Cn1cnc2c1c(=O)[nH]c(=O)n2C`
Result: f

Task: Now the molecule `COC(=O)c1ccc(O)cc1`
Result: f

Task: Now the molecule CCCCCCCCCCCCCCCCCC(=O)OCC(O)CO (stereo not given)
Result: f
